- Measurement Notes: label from the status in PepcDB records
Measurement Type: protein production

MINKVLLEGQRITRSPQVKQHACGASFFLVVLLLIGGLLYSTISWMWDEQRLPLSKLVLQGDLHYVSALDVQRVLARLDHIGTFMSQDINVLQESVQSIPWVSHASIRKQWPDTIKVYLTEYQVEALWNANALLDKNGTVFYGDIARVNGEYVKLYGPDGTAPQVLKAWRDYNPKFAQLGLNISSLVLNDRRAWQIILDNGIRLELGKESLEERISRFFLLYKQLGNKAEQVSYIDLRYDTGAAVGWFPEQELTQEKNDD : failed
MKILYPTDFSEVSQKALTECVPSIILGIGEGSELILLHVVDITASEIGALELAEVDKEELNNLASQLREKGIKVKPIVRIGIPSLEISEVAKEENVDLIIIPSKGENILRQMLLGSTASNLARITHKPVLLLRYEVENGEIKSLQDCSRIFEKPLVALDLSKCSEKIIETIKDLPGVREAVLFHVVDYGKVEELENNIKNAKEKLSKYGKLLPWKTKIEVQAGIASKGIIGAAIDNNVTLVVIGKKGRSVLKDLLLGSTAERVIRDCKLPTLLIPCE : failed
MDELRQKLQYSSFELEAVKAKANEETKLHQEEVKNLLHLLKLARQERDEAKDQLQKLLTIKTNSSITESNSHGSSPVDSFFEPVSSSEFSNFNMVPEPINQVKFKNRQQLVNRNLKKIDPVDALMDEIIKGKALPEKGKLLQTVMESGPLLQTLLVAGPLPRWRNPPPLQQSFRVPPISNSYGCLPATTTTSMLNFRGCSVPRIATGIEVATKRQRFH : failed

###

- Measurement Notes: label from the status in PepcDB records
Measurement Type: protein production

MFTRRGDQGETDLANRARVGKDSPVVEVQGTIDELNSFIGYALVLSRWDDIRNDLFRIQNDLFVLGEDVSTGGKGRTVTREMIDYLEARVKEMKAEIGKIELFVVPGGSIESASLHMARAVSRRLERRIVAASKLTEINKNVLIYANRLSSILFMHALLSNKRLNIPEKIWSIHRVS : not failed
MRIGHGFDVHAFGGEGPIIIGGVRIPYEKGLLAHSDGDVALHALTDALLGAAALGDIGKLFPDTDPAFKGADSRELLREAWRRIQAKGYTLGNVDVTIIAQAPKMLPHIPQMRVFIAEDLGCHMDDVNVKATTTEKLGFTGRGEGIACEAVALLIKATK : not failed
MASRGLDLWLDEHVWKRKQEIGVKGENLLLPDLWLDFLQLSPIFQRKLAAVIACVRRLRTQATVYPEEDMCMAWARFCDPSDIKVVILGQDPYHGGQANGLAFSVAYGFPVPPSLRNIYAELHRSLPEFSPPDHGCLDAWASQGVLLLNTILTVQKGKPGSHADIGWAWFTDHVISLLSERLKACVFMLWGAKAGDKASLINSKKHLVLTSQHPSPLAQNSTRKSAQQKFLGNNHFVLANNFLREKGLGEIDWRL : not failed

###

- Measurement Notes: label from the status in PepcDB records
Measurement Type: protein production

MEYALLQHYWWFLVSLLGALLVFLLFVQGGQSFLFSLGKDELTQKMMVNSTGRKWEFTFTTLVTFGGALFASFPLFYSTSFGGAYWVWMLILFCFIIQAVSYEYQSKHGNVWGRKTYQILLFINGVLAPVLLGTAVSTFFTGSSFVVNKMAMFDLSGGNQIVSAWQPFNGWQLRGLEAVLNLWNVVLGLAVFFLARVSALLYFINNIDDESLYAAAKRRLWANTVAFLIFFLAYIAFLLTTEGFAVNPVSKEVYMEPYKYLYNFLDMPAVLAVFLLGVILVLGGIGLTLLRKGFKRGIWLHGTGTVLTVLALLLVAGWNDTSWYPSTYDLQSSLTIENASSSHFTLKVMSYVSLLIPFVLAYIFYAWRALDIRKITKKEMEQDDHVY : failed
MTEPNNPHRPDEAGVSGWPSEAGRDPYGQPSNPYQMPAPYSSGLPVAENHRRPYVDFGLAIKLFFKNYAVFRGRASRSEYWWTVLFNFIIAVAIQALMPILQGVGLMSAITSNSTTEFSAMSTSGVIFTMLPLAWLLAIIIPCLALTVRRLHDVNHSGWWVMAPTLCGIVSAIMMILAFVSAAANDGKPSMALLTIGIVLFVAIFVVNIILLIFVISDSHPEAWKKYDKEPLPVTE : failed

###

- Measurement Notes: label from the status in PepcDB records
Measurement Type: protein production

GAAGPWRLPIGNSVVASSPPVLQANAETWLDFTDLVFIDPVGTGYSRFVASGDEVRKHFYAVEGDISAMAVVIRRWLEKNDRLVSPKYLAGESYGGIRGPKVVDNLQTKQGVGVNGLILVSPVLDFRDLSGSSLLQYAARLPSMTAVARQQKGKVNRADLADVESYARSEFLTDLVKGEADKEATTRLADRVSALTGIDKTVSRRLAGRFDTREFQREFDRDRGRVTGRFDGAKLGLDPFPDSSAAHFGDPSADSLIAPLTSAAVQLTRSTLNWKPDGSYELLNGSVAEQWDFGRGRQPLESTTQLREILSVDPSLQVLVTGGLFDLAAPYFGTQMVLDQLPPTLAEKRVKFVVYPGGHMFYAEDAARQSLHDEVKAMMK : failed
MLKLTPLLLAIAYGFLMYQFSVWRTKRMLDAQSRPLDEPEILALARRMAAALDLPTVKVSVFEVDPVNGLAAPDGRIFLTRGFLKKYRAGEVTAEELASVIAHELGHVALGHSRRRMIDFTGQNAVLMMLGAVLNRFVPFAGIWIARLLTSALSARLSRRDEHEADAYASALLVKAGIGTEPQKSLFRKLHRWSGMNSSAVPAWLMSHPVTDERIRRIEEREARWIEGLEHHHHHH : failed

###

- Measurement Notes: label from the status in PepcDB records
Measurement Type: protein production

MDLDYGGVPLWINRFLGEPSVLTLKDRIDPGWYRAVNTQSCPLECDCPIQWPTAIYCDHRGLNQLPSGLPFRLQYLFLQGNNITSLGSRAFDNTTYLRWLILDHNELLSEQLDNVLFSSLTRLVNLFINHNNLTKVPAGLPSGLKQLRLAYNHIEKISEGDFQNLDSLTLILLQGNRLKTIEEGDFKGLGALNLLDLSHNFLDTFPKHLPPSVQQLYLSNNSLTGLSENSLHAFSGLRYLRLGHNKLRNERLDPGAFNLTSLVELDLSYNRLTEIPSVPITLQYLYLEVNHIQEFNVSSFCRTVGPTSYSRMKILRLDGNKLEYHKLPPDWVFCLRVLHNIYI : failed
MNIRIAEELDVPALAELYQTTVLAVAPQHYSPEQTQMWASFASDTDNFQKFILNATTFIATDERGILGFAGITEDGHVTATYVRSDLIRQGIGSILMEKILEYAHLHKIRRLYAEASEFSLGLFQKFGFHIYDTEIVNRQGVLFRRYIVERS : failed
MSHRRDYGSDAVHVRITHDPPPENCFPNSGDSSVWATEDDYSRVWAINSDGAESPSKKTRSSSSSEIGKSFFKTKLCFKFRAGTCPYSASSCHFAHSAEELRLPPPPPPNWQETVTEASRNRESFAVSLGPRGNVAQTLKSPNWKTRICNKWQTTGYCPFGSHCHFAHGPSGKATAFFIY : failed

###

- Measurement Notes: label from the status in PepcDB records
Measurement Type: protein production

MWPVVALTLFVVTFGFVLGGLVVGGKVQARPVSFLLFSGLFLFSSFFGMLVSLFTTGWFPFRLLDVVIVALCFVFIVSCFMRFHPTFGFFQFDGRANMILFAVISFFLGLQLGMLGWRTFFILFLALVFTAGLFAGGVFQVRAVMKFYSRQPSFHFLPLIWLLFATVLKLL : failed
MLTNGMKYHEKLVDESSRNILFIGQDRISGLYDTIGILSIDRKNKKLKIIMIPRDLYIDYSSRVKHYLEENGRLNDPDFYKINAAHLIGPYMKYEGKFGAYSMNFLAELIKEIFDIEVHDYVRVNTEGFVQIVDLFGGVDINVPYDMHYDDIYQDLHIHINKGWNHLDGKKAEGFVRYRQSNDEMGNITHSIGDYERKKNQINFIKAFIEQHGTMSNIDKLPSLISTLNKYMKHSIGVGDVLTTYIGYAKDVVLYKYPIETYTVTGKDKYMNQRYYIVIENDNKTSKVVDLEHHHHHH : failed
EMVDDQAMNEQLYYYFDPGDFKPPLVVYFSGFRLALGVEGANMMRALEAPALIFGEQRILGGSFYVGSKKFEQEIVRIIQTTLKKLGFTANQLVLSGLSMGTYASLYY : failed

###

- Measurement Notes: label from the status in PepcDB records
Measurement Type: protein production

MTAYDLKLKCVCDYIQQHLDETLSLQQLSEVAGLSRFHFHRIFYAHLGMNIMKYTQMLRLKRASFQLVFKPEVKVIEIALDAGFDSPEAFARAFKRSFDQTPSAFRVEPNWQNWHRKFVYFTPESELKMNVTIIERPVEKIAYISHQGSPEKVFETAAKFIEWRKRTGLSPVKTSATYGIPFSDPEQTPEKEFRFDIAGSITKSIDQNNEGIEMSEIPAGRYAMVRHWGSHDYIRDSVYFLFRNWLPAQQEEAGDYPVFFHYHNFVHEVKEADLVTDIYLLLK : failed
MQESVVRVDYDSLETCKNFKPSVGTELIVLEKDIAHARFKGNESMVYEENFVHAGFVLIACNYAALCALNKRHSVVVSNNINFYAPLELNQEALIKAQVIQDGVKKAEIKIEAFVLDIQVLEGMIEIVVFDKKPFKFNFKEELEHHHHHH : failed
